- procedure.details: NCI Yeast Anticancer Drug Screen. Data for the cln2 rad14 strain (AID 165);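 also: 0% = growth equal to vehicle treated cultures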
- condition: S. cerevisiae cln2 rad14 strain, at 50.0 µM, active compounds read high
- Method: Growth inhibition of yeast strains with defined genetic alterations is measured as a screen for potential anti-cancer activity. Selected strains with alterations in DNA damage repair or cell cycle control were exposed to compounds and growth inhibition was measured relative to vehicle treated controls. The strain used in this assay is cln2 rad14
This is part of a sample that, as a whole, favours compounds with a hit. Of some 79,000 tested, about 15% had one in any assay.
// growth inhibition lookup, one value per entry
property.label: growth inhibition (%)

{"columns": ["molecule", "result.number"],
 "data": [
  ["O=C1CCC(c2nc3ccccc3o2)C(=O)N1 (configuration not stated)", 0.65],
  ["CCOC(=O)C(C)C(CCC#N)(C(=O)OCC)C(=O)OCC (configuration not stated)", -0.35],
  ["O=C(N/C=C\\NC(=O)Nc1cccc(Cl)c1)Nc1cccc(Cl)c1", 15.8],
  ["Cc1cccc(NC(=O)c2c(Cl)c(Cl)c(Cl)c(Cl)c2C(=O)O)c1C", -35.5],
  ["O=C(/C=C/c1cccs1)c1ccc(Cl)cc1", -2.8],
  ["C=CN1C(=O)c2ccccc2C1=O", 6.3],
  ["COc1ccccc1C=Nc1ccc(O)cc1", -26.6]
]}
